Data credit: patent EP4603105A1

# maps each entry to its pIC50
- Test system: human lung cancer strain NCI-H441
- assaySummary: NCI-H441 cell proliferation inhibitory activity (CellTiter-Glo, 4 days)
- Assay type: cell-based
- measurementSetup: NCI-H441 cells, 4 days, read-out: NCl-H441 IC50
pIC50: −log10 of the molar value.

smiles | measurementTarget | pIC50
CC[C@H](C)[C@@H]1NC(=O)[C@H](COC)N(C)C(=O)C[C@@H](C(=O)N(C)C)N(C)C(=O)[C@H](C2CCCC2)N(C)C(=O)C2(CC(C)(C)C2)NC(=O)[C@@H]2C[C@H](C)CN2C(=O)[C@H](CCc2ccc(C(F)(F)F)c(Cl)c2)NC(=O)CN(C)C(=O)[C@H](Cc2ccc(C)cc2)N2CC/C=C\C[C@@H](C2=O)N(C)C(=O)CN(C)C1=O | human lung cancer strain NCI-H441 | 8.10
CCCO[C@@H]1C[C@H]2C(=O)NC3(CC(C)(C)C3)C(=O)N(C)[C@@H](C3CCCC3)C(=O)N(C)[C@H](C(=O)N(C)CC)CC(=O)N(C)[C@@H](COCC)C(=O)N[C@@H]([C@@H](C)CC)C(=O)N3C[C@@H](C)C[C@H]3C(=O)N(C)[C@H]3C/C=C\CCN(C3=O)[C@@H](Cc3ccc(C)cc3)C(=O)N(C)CC(=O)N[C@@H](CCc3cc(F)c(C(F)(F)F)c(F)c3)C(=O)N2C1 | human lung cancer strain NCI-H441 | 6.94
CCOC[C@H]1C(=O)N[C@@H]([C@@H](C)CC)C(=O)N(C)CC(=O)N(C)[C@H]2C/C=C\CCN(C2=O)[C@@H](CC2CCCCC2)C(=O)N(C)CC(=O)N[C@@H](CCc2cc(F)c(C(F)(F)F)c(F)c2)C(=O)N2C[C@H](OCC)C[C@H]2C(=O)NC2(CC(C)(C)C2)C(=O)N(C)[C@@H](C(CC)CC)C(=O)N(C)[C@H](C(=O)N(C)C)CC(=O)N1C | human lung cancer strain NCI-H441 | 7.59

====

- System: human lung cancer strain NCI-H441
- assaySummary: NCI-H441 cell proliferation inhibitory activity (CellTiter-Glo, 4 days)
- Assay type: cell-based
- measurementSetup: NCI-H441 cells, 4 days, read-out: NCl-H441 IC50
- Experimental: A test compound was dispensed into a U-bottom 384-well plate as 40 nL serially diluted dimethyl sulfoxide solutions using a liquid handler Echo (LABCYTE). […] This cell suspension was dispensed in an amount of 40 µL per well into a plate containing the test compound, and cultured at 37°C in a 5% carbon dioxide gas incubator. Four days later, 20 µL of CellTiter-Glo (registered trademark) (Promega) was added to each well and […] was measured. […]
pIC50: −log10 of the molar value.
reportedEndpoint: pIC50

compound | value
CCCC[C@@H]1NC(=O)C[C@@H](C(=O)N(C)C)N(C)C(=O)[C@H](C2CCCC2)N(C)C(=O)C2(CC(C)(C)C2)NC(=O)[C@@H]2C[C@@H](OCC)CN2C(=O)[C@H](CCc2ccc(C(F)(F)F)c(OC)c2)NC(=O)CN(C)C(=O)[C@H](Cc2ccc(C(F)(F)F)cc2)N2CC/C=C\C[C@@H](C2=O)N(C)C(=O)CN(C)C(=O)[C@H]([C@@H](C)CC)NC1=O [PP3446] | 7.67
CCC(CC)[C@H]1C(=O)N(C)[C@H](C(=O)N(C)C)CC(=O)N(C)[C@@H](COC)C(=O)N[C@@H]([C@@H](C)CC)C(=O)N(C)CC(=O)N(C)[C@H]2C/C=C\CCN(C2=O)[C@@H](CC2CCCCC2)C(=O)N(C)CC(=O)N[C@@H](CCc2ccc(C(F)(F)F)c(OC)c2)C(=O)N2C[C@@H](C)C[C@H]2C(=O)NC2(CC(C)(C)C2)C(=O)N1C [PP2466] | 6.77
CCC(CC)[C@H]1C(=O)N(C)[C@H](C(=O)N2CCCCC2)CC(=O)N(C)[C@@H](COC)C(=O)N[C@@H]([C@@H](C)CC)C(=O)N(C)CC(=O)N(C)[C@H]2C/C=C\CCN(C2=O)[C@@H](Cc2ccc(C(F)(F)F)cc2)C(=O)N(C)CC(=O)N[C@@H](CCc2cc(F)c(C(F)(F)F)c(F)c2)C(=O)N2C[C@H](OC(C)C)C[C@H]2C(=O)NC2(CC(C)(C)C2)C(=O)N1C [PP2608] | 7.28
CCO[C@@H]1C[C@H]2C(=O)NC3(CC(C)(C)C3)C(=O)N(C)[C@@H](C3CCCC3)C(=O)N(C)[C@H](C(=O)N(C)CC)CC(=O)N(C)[C@@H]([C@@H](C)OC)C(=O)N[C@@H]([C@@H](C)CC)C(=O)N(C)CC(=O)N(C)[C@H]3C/C=C\CCN(C3=O)[C@@H](Cc3ccc(C)cc3)C(=O)N(C)CC(=O)N[C@@H](CCc3ccc(C(F)(F)F)c(OC)c3)C(=O)N2C1 [PP3176] | 7.87
CCC[C@H]1C(=O)N[C@@H]([C@@H](C)CC)C(=O)N(C)CC(=O)N(C)[C@H]2C/C=C\CCN(C2=O)[C@@H](Cc2ccc(C)cc2)C(=O)N(C)CC(=O)N[C@@H](CCc2ccc(Cl)c(Cl)c2)C(=O)N2C[C@H](OC3CCC3)C[C@H]2C(=O)NC2(CC(C)(C)C2)C(=O)N(C)[C@@H](C(CC)CC)C(=O)N(C)[C@H](C(=O)N(C)C)CC(=O)N1C [PP2644] | 7.12
CCCOC[C@H]1C(=O)N[C@@H]([C@@H](C)CC)C(=O)N2CCC[C@H]2C(=O)N(C)[C@H]2C/C=C\CCN(C2=O)[C@@H](CC2CCC(F)(F)CC2)C(=O)N(C)CC(=O)N[C@@H](CCc2ccc(C(F)(F)F)c(OC)c2)C(=O)N2C[C@@H](C)C[C@H]2C(=O)N(C)C2(CCC2)C(=O)N(C)[C@@H](C2CCCC2)C(=O)N(C)[C@H](C(=O)N(C)C)CC(=O)N1C [PP2381] | 8.49
